system: PPARg DBDmut:RXRa IVT, anti-PPARg (DBD mutation: PPARg1 K132A/R137A, NR concentration 270 nM, RXRa partner concentration 90 nM); experiment: PBM binding z-score (relative to random genomic background probes); higher = stronger binding; sequences stand for … in GC…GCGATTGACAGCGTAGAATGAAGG
Parameter threshold = 0.4. Response is y when PBM binding z-score meets or exceeds it, else n.

>>> qualitativelabel("TGAATGAGGTTAAAGATCAGTGAACGTGGCGTCG")
"y"
>>> qualitativelabel("GCTTGTAGATCAAGGTGAAGAAAGACTAAGCTAA")
"n"
>>> qualitativelabel("TAGCCTAGGTCATTCATGGGCCAGTATAGAAAGC")
"n"
>>> qualitativelabel("GCTATTAGTTGAAACGGCAACCGAATGATTCTCG")
"n"
>>> qualitativelabel("CAAACTACGTCAAAGGTCAAAGTCGAGCCAACCA")
"y"
>>> qualitativelabel("CCGAGTAGGTTATGGGGCATACAGGCAACGGTGA")
"n"

---

system: LXRa homodimer (NR concentration 270 nM); assay: PBM binding z-score (relative to random genomic background probes); higher = stronger binding; sequences stand for … in GC…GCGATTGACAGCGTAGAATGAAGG
valueType: PBM binding z-score

>>> reported("ATCTCTAGGCAAAAGTTCAGTGAATCCCGAGGAT")
0.751
>>> reported("TCTAGTTGGTCAATGGTCACACACTCGAAATGCG")
0.28
>>> reported("CCTTACGGGTCATTGACAGGTTATAGCATTTGGA")
1.1
>>> reported("CAAACTACGTCACCGGAAGGTCAAAGTCCGCATG")
3.72
>>> reported("AGTCAAAGTTCAGGACGATGTAACGTAAAGCACG")
0.938
>>> reported("AGAACGAGGGCACGCTGAGTTGATAGCCGAGTAG")
-0.574

---

Documented PBM binding z-score across a set of sequences
tested on: PPARg:RXRa IVT, anti-PPARg (NR concentration 270 nM, RXRa partner concentration 90 nM); assay: PBM binding z-score (relative to random genomic background probes); higher = stronger binding; sequences stand for … in GC…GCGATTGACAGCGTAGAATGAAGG
valueType: PBM binding z-score

>>> reported("TGGATGAGGTTAAAGATCAGGGAACGTGGCGTCG")
1.92
>>> reported("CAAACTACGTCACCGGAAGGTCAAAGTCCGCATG")
1.61
>>> reported("TCAGCTAGGTCAGTTGGTCAGCTAACGAGCTGCC")
2.65
>>> reported("TGAATGAGGTTAAAGATTAGGGAACGTGGCGTCG")
2.99
>>> reported("ACTAGTTGGACAGCTGAGGTCACACACAATTCGG")
1.88
>>> reported("CCTACTGGGCCACGCAAGGTCATTGATTCAGTGA")
5.36
>>> reported("ATCTCTAGGTAGAGTTCAGTGAAAGATCGATAGA")
0.789
>>> reported("TCATATAGGTATAGGTGAAAGTCGAACGATATGA")
1.55
>>> reported("ACCATTAGTTGAGACGAGGGCAACCGATAGGTTG")
0.503
>>> reported("ATCTCTAAGTAAAGATAGTTCAGTGAATGCAAAT")
-0.072
>>> reported("CAAACTAGGTCAATGTCAAAGTCGGTTTGTGCCA")
8.59
>>> reported("CAAACTAGGTCACGAACGGTCAAAGTCGAATGAC")
9.13
>>> reported("AATACAGGGTTACTAGGCCAGAGTAGGTACGAAT")
4.59
>>> reported("TCTCGGAGGACACGAAAGGTCAGAGCTCGACATC")
1.53
>>> reported("TGAATGAGATTATAAGATCAGGGAACGTTGCAAA")
-0.236
>>> reported("ATACCAAGGTGATCGTGAGGTCGTTAATACTAAC")
1.08
>>> reported("CCGAGCAGGCCAATCTGGGTCACTCAAGGCTTGA")
4.58
>>> reported("CTACCAAGGTGAACAAGGTCCTTGATTACTATTC")
2.45
>>> reported("CCTCGGAGGAAAGAAGGTCAGAGCTGTCCGCTTT")
0.86
>>> reported("GCTAGCAGGGCATTTGGGTCACTCAATGACGGGC")
3.14
>>> reported("AGAACGAGGGCATGCTGAGTTGATAGCAGAGTAG")
1.99
>>> reported("CGAACTAGGTTAAGGACAGTGAATCTCCGCACGC")
5.67
>>> reported("CGAACTAGGTCATTGACGGGACAGTGAATAGTAA")
8.13
>>> reported("CGTCCCAGGTCAGAGAGGTCAGTGAATGCCGAGT")
2.54
>>> reported("GATACAGGGTCAGCTAGAGTCCAGAGTATGGAAA")
2.05
>>> reported("TCATATAGGTAAACAGGTGAAAGGCCGTAAGTTA")
4.59
>>> reported("GCGACTGGGACAAAGCAGGTTACCATAAGGTTGG")
1.83
>>> reported("TCTTGTAAATCAGCAGGTTAAGAAAGCTGGCCAA")
-0.234
>>> reported("CTCTAAAGGTCGTGCTCAGGTGAGTATACCAAAC")
2.17
>>> reported("TATACAGGGTCAAAGGCCGGAGTACGAATGTCGA")
4.9
>>> reported("AGAATGAGGTTATTTAGATCAGGGAATTGCGGTC")
2.43
>>> reported("GCTCGGAGGACGAGGTCAGAGCTTTGTCCGTAGA")
0.506
>>> reported("CCTCGGAGCACAACAGGAGGTCAGAGCTGCCAGA")
0.244
>>> reported("TGTCAAAGTTCAGAGGTAACGTAAGTATCCACAC")
3.54
>>> reported("GCTTACGGGTCAAAGGTTATTGCATGAATAGAAT")
5.79
>>> reported("GCTAGTTGGTCAGTAAAAGGGCACACACCGGTCG")
0.821
>>> reported("TCATATAGGTAATATAGGTGAAAGTCGGCATCTA")
5.68
>>> reported("ACAGACATGTGAGTGAAGGTAACTCAGCTGGACG")
-0.467
>>> reported("TCGGGTAGGTTACCAATGGGGCATTCAGCTTTCT")
1.82
>>> reported("CGTCCAAGGTAAGCAGGTCAGTGAAAGCGACGTG")
1.91
>>> reported("TCATATAGGTAAACAGGGGAAAGTCCGTAAGTTA")
3.46
>>> reported("ACAGACAGGTGAGTGAAGGTAACTCACCTGGACG")
1.01
>>> reported("GCTTACGGGTCAAAGGTTGTAGCATGAATAGAAT")
5.38
>>> reported("CCTACTGGGCCGCGAAAGGTCATTGATTCAGTGA")
3.04
>>> reported("GTACCAAGGTGAATAGGTTGTTGATGAGTAGGCG")
2.2
>>> reported("TCATATAGGTAAAGGTGAACGTCGAACGATATGA")
4.38
>>> reported("TTTACAGGGTCAAAGGCCAGAGTACGAATGTCGA")
5.18
>>> reported("GCCCGGAGGACAAGGTCAGAGCTTTGTCCGTAGA")
0.093
>>> reported("AAAATGAGGTTACCAAAGATCAGGGAAACGCTTG")
4.33
>>> reported("CGAACAAGGTCAGAACAGGACAGTGAAGGATGAT")
3.05
>>> reported("ATCTCTAGGTCAGACTCAGTTCAGTGAAGAACGC")
5.22

---

tested on: PPARg DBDmut:RXRa IVT, anti-PPARg (DBD mutation: PPARg1 K132A/R137A, NR concentration 270 nM, RXRa partner concentration 90 nM); assay: PBM binding z-score (relative to random genomic background probes); higher = stronger binding; sequences stand for … in GC…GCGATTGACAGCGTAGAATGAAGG
Documented PBM binding z-score across a set of sequences
valueType: PBM binding z-score

>>> reported("TCATATAGGTAAACAGGTAAAAGTCCGTAAGTTA")
1.35
>>> reported("GCTATCAGGCCATTTGGGTCACTCAATGACGGGC")
-0.109
>>> reported("ATCGAAAGGTCGACGAGGTGAGTACACACCGTTT")
0.931
>>> reported("CAAACTAGGTGAAGAGGTCAAAGTCCGCTTCCCG")
2.35
>>> reported("GCTCGGAGGACAACGTCAGAGCTTTGTCCGTAGA")
-2
>>> reported("CCGACTGGGGCAGAAAGGTTAACATACCATCCGG")
-0.202

---

Documented PBM binding z-score across a set of sequences
tested on: RARb:RXRa (NR concentration 270 nM, RXRa partner concentration 90 nM); experiment: PBM binding z-score (relative to random genomic background probes); higher = stronger binding; sequences stand for … in GC…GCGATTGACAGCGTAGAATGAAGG
valueType: PBM binding z-score

>>> reported("CCTATTAGTTGACCACAAGGGCAACCGAAGCTCG")
1.49
>>> reported("TCTGCTAGGTCAACGATGGGCAGCTAATCTGCTA")
4.19
>>> reported("GCTAGTTGGTCAGTAAAAGGTTACACACCGGTCG")
2
>>> reported("CGAACTAGGTCAAGGACGGTGAATCTCCGCACGC")
3.76
>>> reported("TCCTGTAGATCAAAGGTTAAGAAAGCCGAAGCCT")
1.78
>>> reported("ATATGGAGGTTATCGGGTCATTCAGTTTGCGCAT")
3.26
>>> reported("ATCGAAAGGTCTTGAGGTGAGTATACAGAAAGGC")
2.13
>>> reported("ATCTCTAGGTAACCAAGTTCAATGAATGCCGAAC")
1.43
>>> reported("CTAACTAGGTCATTGACAGGACAGTGAATAGTAA")
3.66
>>> reported("GGAACGAGAGCAAAGTTGATAGCATCTGTCGACG")
-0.296
>>> reported("AGAATGAGGTTATACGTACATCAGGGAAGAAAGT")
1.5
>>> reported("CCTGACGGGTCACTCCAGGTTATAGCATCGGAGT")
3.31

src = the supplement of paper PMC6555819
